Where do these numbers come from? They come from PubChem BioAssay (NCI).

- Test system: BT-549 breast
- testName: NCI tumour cell line growth inhibition, 48 h
# if value of TGI reaches 7 µM, tag Yes; if it stays below, tag No

{"columns": ["compound", "targetOrSystem", "class"],
 "data": [
  ["Cc1c(-c2ccnc(N)n2)c2c(n1Cc1ccccc1)C(=O)c1ccccc1C2=O", "BT-549 breast", "Yes"],
  ["C#Cc1nc2ccccc2c(=O)[nH]1", "BT-549 breast", "No"],
  ["C=C(C)[C@H]1C2=CC(C)=C(O2)[C@@H](O[C@@H]2c3oc(cc3C)[C@H](C(=C)C)[C@H]3C=C(CC[C@H]2C(=C)C)C(=O)O3)[C@H](C(=C)C)CCC2=C[C@H]1OC2=O", "BT-549 breast", "Yes"],
  ["COc1cc2c(cc1OCCCCCCN1CCN(CC(=O)Nc3ccc(Cl)cc3C(=O)c3ccccc3Cl)CC1)N=CC1CCCN1C2=O (stereo not drawn)", "BT-549 breast", "No"],
  ["O=C1c2c(O)cccc2-c2nn(CCNCCO)c3ccc(NCCNCCO)c1c23", "BT-549 breast", "No"],
  ["C=CC(=O)Nc1cc(N2CCN(CC)CC2)ccc1Nc1cc(N(C)C(=O)Nc2c(Cl)c(OC)cc(OC)c2Cl)ncn1", "BT-549 breast", "Yes"],
  ["COc1ccc(Nc2ccc3ccccc3c2-c2c(O)ccc3ccccc23)cc1", "BT-549 breast", "Yes"],
  ["O=P1(S)OC[C@H]2O[C@@H]3[C@H](F)[C@@H]2OP(O)(=S)OC[C@H]2O[C@H]([C@H](F)[C@@H]2O1)n1cnc2c(ncnc21)NC/C=C/CNc1ncnc2c1ncn23 (stereo partly drawn)", "BT-549 breast", "Yes"],
  ["NCC(O)CSCc1ccc(Cl)cc1 (stereo not drawn)", "BT-549 breast", "Yes"],
  ["CC(C)C(C/C=C1\\CC(CO)(COC(=O)C2CCCCC2)OC1=O)C(C)C (stereo not drawn)", "BT-549 breast", "Yes"],
  ["Cc1nc2ccc(NC(=O)CCNC(=O)CCCc3ccc(CC(C(=O)O)C(=O)O)cc3)cc2s1", "BT-549 breast", "Yes"],
  ["C/C(=N\\Nc1nc2cc(C(F)(F)F)ccc2s1)c1ccccn1", "BT-549 breast", "Yes"],
  ["CC(C)(C)OC(=O)NCCCn1c2c(c3ccccc3c1=O)C(=O)c1ccccc1-2", "BT-549 breast", "Yes"],
  ["Cc1nc(Nc2cccnc2)sc1C(=O)/C=C/c1ccc(Cl)cc1", "BT-549 breast", "Yes"],
  ["Cc1cc(O)c(C2=NN(c3ccc(S(N)(=O)=O)cc3)C(c3ccc(Cl)cc3)C2)c(C)c1Cl (stereo not drawn)", "BT-549 breast", "Yes"],
  ["Cc1nn(-c2ccccc2)c(C)c1/C=N/N=C1\\S/C(=C\\c2ccc(Cl)cc2)C(=O)N1c1ccccc1", "BT-549 breast", "Yes"],
  ["Nc1nc(Cl)cc(NC23CC4CC(CC(C4)C2)C3)n1", "BT-549 breast", "Yes"],
  ["COc1cccc(N=N/C(=N\\NC(=O)c2ccc(C)cc2)c2ccc(N(CCC#N)CCC#N)cc2C)c1", "BT-549 breast", "Yes"]
]}

---

- Test system: OVCAR-8 ovarian
- testName: NCI tumour cell line growth inhibition, 48 h
Where a SMILES comes first, the peptide text is derived from it. [ ]: non-standard residue; d: D form. The star is where a group is joined. Bn2Val = CC(C)[C@@H](C(=O)*)N(Cc1ccccc1)Cc1ccccc1; NH(4-Cl-benzyl) = Clc1ccc(CN*)cc1; NMeV = CN[C@H](C(=O)O)C(C)C; dNMeA = CN[C@H](C)C(=O)O
reportedMetric: TGI

{"columns": ["compound", "testResult"],
 "data": [
  ["Cc1cc(N(CCC#N)CCC#N)ccc1N=Nc1ccc(Br)cc1", "> 96.1 µM"],
  ["C#Cc1nc2ccccc2c(=O)[nH]1", "8.19 µM"],
  ["Cc1ccc(S(=O)(=O)c2nc(-c3ccccc3)oc2S(C)=O)cc1 (stereo not given)", "3.79 µM"],
  ["O=P1(S)OC[C@H]2O[C@@H]3[C@H](F)[C@@H]2OP(O)(=S)OC[C@H]2O[C@H]([C@H](F)[C@@H]2O1)n1cnc2c(ncnc21)NC/C=C/CNc1ncnc2c1ncn23 (stereo not given in full)", "> 100 µM"],
  ["Cc1nc(N)c(N2CCN(CN)CC2)c(=O)[nH]1", "> 100 µM"],
  ["COC(=O)C1C(=O)N(C)C(=O)N2CCCC12 (stereo not given)", "> 100 µM"],
  ["C/C(=N\\NC(=S)N(C)C)c1cccnn1", "> 100 µM"],
  ["COC[C@@H](N=Cc1ccc([N+](=O)[O-])cc1)C(C)C", "> 100 µM"],
  ["Nc1ccc(S(=O)(=O)Nc2nc3ccccc3nc2N2CCCCCC2)cc1", "> 100 µM"],
  ["COc1cnc2c(c1)C(=O)c1c-2n(CCCNCCO)c(=O)c2ccncc12", "23.7 µM"],
  ["N.N.N.N.N.O=[N+]([O-])[O-].[Co+3].[O-][Cl+3]([O-])([O-])[O-]", "> 100 µM"],
  ["CC(=O)O[C@]1(C)OC(=O)[C@@H](CC(C)C)N1[N+](=O)[O-]", "> 100 µM"],
  ["COc1ccc2cc(CNCCCCCCNCc3ccc4cc(OC)ccc4c3)ccc2c1", "1.15 µM"],
  ["CN(C)/N=N/c1nc2c(c(=O)n(C)c(=O)n2C)n1CC(O)CO (stereo not given)", "> 100 µM"],
  ["CN(C)CCCNc1ccc2nnn3c4ccc(O)cc4c(=O)c1c23", "17.6 µM"],
  ["CC(C)OP(=O)(OC(C)C)/C(N)=N/Nc1ccc([N+](=O)[O-])cc1", "> 100 µM"],
  ["Cc1nc2ccc(NC(=O)CCNC(=O)CCCc3ccc(CC(C(=O)O)C(=O)O)cc3)cc2s1", "> 100 µM"],
  ["Cc1cc(C)c2c(c1)C(=O)/C(=C/c1ccccc1C(=O)O)C2", "> 100 µM"],
  ["COC(=O)C1=C(C(=O)OC)C2(C)C=CC1O2 (stereo not given)", "31.7 µM"],
  ["CC(C)[C@H](NC(=O)[C@H](C(C)C)N(Cc1ccccc1)Cc1ccccc1)C(=O)N(C)[C@H](C(=O)N1CCC[C@H]1C(=O)N(C)[C@H](C)C(=O)NCc1ccc(Cl)cc1)C(C)C (Bn2Val-V[NMeV]P[dNMeA]-{NH(4-Cl-benzyl)})", "> 100 µM"]
]}

---

- System: LXFL 529 NSCLC
- testName: NCI tumour cell line growth inhibition, 48 h
TGI for assorted compounds

{"columns": ["compound", "TGI"],
 "data": [
  ["Cc1cccc(C)c1NC(=O)CCc1nc(=S)[nH][nH]1", "> 100 µM"],
  ["CC1=NN(C(=O)c2ccc(Cl)cc2)C(=O)/C1=C/c1ccccc1O", "> 100 µM"],
  ["COc1ccc(CCn2c(=O)c3ccccc3n(C)c2=O)cc1", "> 100 µM"],
  ["C=CCC1=C(C)C[C@@H]2CCC(=O)C=C12", "> 100 µM"],
  ["CCOC(=O)CCn1ncc(Cl)c(Cl)c1=O", "10.5 µM"],
  ["C#Cc1c(C)c(/C=C/C(C)=C/C(=O)OC)n(C)c1C", "> 100 µM"],
  ["CC1CCSC(N(C(=O)N(C)c2ccccc2)c2ccccc2)=N1 (stereo not given)", "> 100 µM"],
  ["C[Si](C)(C)/C=C\\CCO", "> 100 µM"],
  ["O=C1c2c(O)cccc2-c2nn(CCNCCO)c3ccc(NCCNCCO)c1c23", "1.14 µM"],
  ["CC(C)OP(=O)(OC(C)C)/C(N)=N/Nc1ccc([N+](=O)[O-])cc1", "> 100 µM"],
  ["CN(C)CCCNc1ccc2nnn3c4ccc(O)cc4c(=O)c1c23", "20.1 µM"],
  ["COc1ccc(C(=O)C(CC2C(=O)NC(=O)NC2=O)c2ccc(OC)cc2)cc1 (stereo not given)", "> 100 µM"],
  ["O=C1CC(c2[nH]nc3ccccc23)C(=O)N1c1ccccc1 (stereo not given)", "> 100 µM"],
  ["O=C(O)CCNCCCCNCCC(=O)O", "> 100 µM"],
  ["CC(C)(C)C(=CS(=O)/N=C/c1ccccc1)C(C)(C)C (stereo not given)", "76.5 µM"]
]}

---

- Tested on: CCRF-CEM leukemia
- testName: NCI tumour cell line growth inhibition, 48 h
reportedMetric: TGI (µM)

{"columns": ["compound", "targetOrSystem", "reportedMetric", "uom", "qualifier", "testResult"],
 "data": [
  ["O=c1[nH]c2ccccc2n1CCCN1CCC(n2c(=O)[nH]c3cc(Cl)ccc32)CC1", "CCRF-CEM leukemia", "TGI", "µM", ">", 100],
  ["NNC(=O)C1(NC(=O)c2ccccc2)C(c2ccccc2)C(c2ccccc2)=NN1c1ccccc1 (centres undefined)", "CCRF-CEM leukemia", "TGI", "µM", "=", 98.4],
  ["O=C(N/N=C/C=C/c1ccccc1)c1ccccc1Nc1ccccc1C(=O)N/N=C/C=C/c1ccccc1", "CCRF-CEM leukemia", "TGI", "µM", ">", 100],
  ["COC(=O)CC(NC(=O)OCc1ccccc1)C(C(=O)OCc1ccccc1)C(C)(OC)OC (centres undefined)", "CCRF-CEM leukemia", "TGI", "µM", "=", 65.4]
]}
